# Study Target: human TREM2/DAP12 fusion protein (human, UniProt O43914 41-113, limits assumed)
# Sequence (O43914 other isoform, or with tags, fused parts or gaps limits assumed): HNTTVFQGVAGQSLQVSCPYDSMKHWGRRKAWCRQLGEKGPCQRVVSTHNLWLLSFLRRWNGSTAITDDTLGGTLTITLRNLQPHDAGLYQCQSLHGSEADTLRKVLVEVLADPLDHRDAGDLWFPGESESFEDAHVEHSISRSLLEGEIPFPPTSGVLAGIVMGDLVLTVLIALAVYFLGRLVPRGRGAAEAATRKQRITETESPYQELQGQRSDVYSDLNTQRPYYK
# Measurement Description: cell-based or functional assay
Quantity: Luciferase activation soluble 10 nM IgG, FOC (FOC)
Give just the numeric value; FOC need not be written.

Previously resolved entries follow.
Binder	Meas Value
AL2p-29 (antibody, V domains shown, Fab and IgG formats under one id) VH: QVQLVQSGAEVKKPGSSVKVSCKASGYAFSSQWMNWVRQAPGQGLEWMGRIYPGDGDTNYAQKFQGRVTITADESTSTAYMELSSLRSEDTAVYYCARLLRNQPGESYAMDYWGQGTLVTVSS VL: GVVMTQTPLSLSVTPGQPASISCRSSRSLVHSNGYTYLHWYLQKPGQSPQLLIYKVSNRFSGVPDRFSGSGSGTDFTLKISRVEAEDVGVYYCSQSTRVPYTFGQGTKLEIK	2.17
AL2p-11 (antibody, V domains shown, Fab and IgG formats under one id) VH: QVQLVQSGAEVKKPGSSVKVSCKASGYAFSSDWMNWVRQAPGQGLEWMGRIYPGDGDTNYARKFQGRVTITADESTSTAYMELSSLRSEDTAVYYCARLLRNQPGESYAMDYWGQGTLVTVSS VL: DVVMTQTPLSLSVTPGQPASISCRSSRSLVHSNGYTYLHWYLQKPGQSPQLLIYKVSNRVSGVPDRFSGSGSGTDFTLKISRVEAEDVGVYYCSQSTRVPYTFGQGTKLEIK	1.71

Input: Report Luciferase activation soluble 10 nM IgG, FOC, nothing else, for this binder: AL2p-6 (antibody, V domains shown, AL2p-h50 variant; Fab and IgG formats under one id) VH: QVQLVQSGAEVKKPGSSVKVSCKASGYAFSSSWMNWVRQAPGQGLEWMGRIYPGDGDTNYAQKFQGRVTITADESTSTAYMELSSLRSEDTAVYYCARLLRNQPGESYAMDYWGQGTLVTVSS VL: DVVMTQTPLSLSVTPGQPASISCRSSQSLVHSNWYTYLHWYLQKPGQSPQLLIYKVSNRFSGVPDRFSGSGSGTDFTLKISRVEAEDVGVYYCSQSTRVPYTFGQGTKLEIK
Output: 1.2
